# Test system: 873145-292-R-J1-PDC complex spheroid viability
# protocol: Anticancer human tumor 873145-292-R-J1-PDC patient-derived renal clear cell carcinoma cell line growth inhibition [POLQ]
# assayConditions: second compound 3.16 µM; first compound 0.0316 µM; stronger effect = lower value
propertyName: viability, T/C (%)
All answers are understood in %, so give the number only.

// worked examples, viability, T/C included
molecule	measureUnit	endpointValue
Cn1ncnc1[C@H]1c2n[nH]c(=O)c3cc(F)cc(c23)N[C@@H]1c1ccc(F)cc1 + COC1C(OC(N)=O)C(O)C(Oc2ccc3c(O)c(NC(=O)c4ccc(O)c(CC=C(C)C)c4)c(=O)oc3c2C)OC1(C)C	%	98.8
O=c1[nH]cc(F)c(=O)[nH]1 + COC1C(OC(N)=O)C(O)C(Oc2ccc3c(O)c(NC(=O)c4ccc(O)c(CC=C(C)C)c4)c(=O)oc3c2C)OC1(C)C	%	95
O=C(c1cc(Cc2n[nH]c(=O)c3ccccc23)ccc1F)N1CCN(C(=O)C2CC2)CC1 + COC1C(OC(N)=O)C(O)C(Oc2ccc3c(O)c(NC(=O)c4ccc(O)c(CC=C(C)C)c4)c(=O)oc3c2C)OC1(C)C	%	108
C=CC(=O)N1CCN(c2nc(=O)n(-c3c(C)ccnc3C(C)C)c3nc(-c4c(O)cccc4F)c(F)cc23)C(C)C1 (stereo unspecified) + Nc1ccc(C#CCN(C(=O)Cc2ncc(C(F)(F)F)cc2C(F)(F)F)c2ccc(F)cc2)nn1	%	112

Query (molecule): CCc1cc2c(N3CCc4c(cc(Cn5ccnc5)cc4-c4cn(C)nc4C(F)(F)F)C3=O)cc(C)nc2c(OC)n1 + Nc1ccc(C#CCN(C(=O)Cc2ncc(C(F)(F)F)cc2C(F)(F)F)c2ccc(F)cc2)nn1 ; field requested: viability, T/C 97.9

Query (molecule): COc1cc2cc(C(=O)CCC(=O)O)sc2cc1OC + Nc1ccc(C#CCN(C(=O)Cc2ncc(C(F)(F)F)cc2C(F)(F)F)c2ccc(F)cc2)nn1 ; field requested: viability, T/C 112

----------
# Tested on: 873145-292-R-J1-PDC complex spheroid viability
# protocol: Anticancer human tumor 873145-292-R-J1-PDC cell line growth inhibition [POLQ];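 further: luminescence signal used as surrogate for viable cell content; spheroids exposed to compounds for 7 days before viability readout; 100% = DMSO vehicle control viability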
# assayConditions: second compound 3.16 µM; first compound 0.0316 µM; stronger effect = lower value
propertyName: viability, T/C (%)
All answers are understood in %, so give the number only.

compound	measureUnit	viability, T/C
CC1COCCN1c1cc(-c2ccnn2C)c2ccnc(-c3ccn[nH]3)c2n1 (stereo not drawn) + Nc1ccc(C#CCN(C(=O)Cc2ncc(C(F)(F)F)cc2C(F)(F)F)c2ccc(F)cc2)nn1	%	88.7
COc1cc2cc(C(=O)CCC(=O)O)sc2cc1OC + Cc1cccc(N(C)C(=O)C2C(O)CCN2c2nc(C)cc(C(F)(F)F)c2C#N)c1	%	89

Query (compound): C#Cc1c(F)ccc2cc(O)cc(-c3ncc4c(N5CC6CCC(C5)N6)nc(OCC56CCCN5CC(F)C6)nc4c3F)c12 (stereo not drawn) + COC1C(OC(N)=O)C(O)C(Oc2ccc3c(O)c(NC(=O)c4ccc(O)c(CC=C(C)C)c4)c(=O)oc3c2C)OC1(C)C ; field requested: viability, T/C 92.5

----------
# System: 873145-292-R-J1-PDC complex spheroid viability
# protocol: Anticancer human tumor 873145-292-R-J1-PDC cell line growth inhibition [POLQ];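 further: luminescence signal used as surrogate for viable cell content; spheroids exposed to compounds for 7 days before viability readout; 100% = DMSO vehicle control viability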
# assayConditions: second compound 10 µM; first compound 1 µM; stronger effect = lower value
propertyName: viability, T/C

compound	propertyName	endpointValue
O=C(Nc1ccc(O)c(NS(=O)(=O)c2ccc(F)cc2)c1)c1ccc(-c2ccccc2)cc1 + Cc1cccc(N(C)C(=O)C2C(O)CCN2c2nc(C)cc(C(F)(F)F)c2C#N)c1	viability, T/C	93.9%
COc1cc(C2c3cc4c(cc3C(OC3OC5COC(C)OC5C(O)C3O)C3COC(=O)C23)OCO4)cc(OC)c1O (configuration not stated) + Cc1cccc(N(C)C(=O)C2C(O)CCN2c2nc(C)cc(C(F)(F)F)c2C#N)c1	viability, T/C	72.3%
CC1COCCN1c1cc(C2(O)CC3CCC(C2)O3)c2cnn(-c3ccn[nH]3)c2n1 (configuration not stated) + Nc1ccc(C#CCN(C(=O)Cc2ncc(C(F)(F)F)cc2C(F)(F)F)c2ccc(F)cc2)nn1	viability, T/C	57.1%
CCc1cc2c(N3CCc4c(cc(Cn5ccnc5)cc4-c4cn(C)nc4C(F)(F)F)C3=O)ccnc2c(OC)n1 + COC1C(OC(N)=O)C(O)C(Oc2ccc3c(O)c(NC(=O)c4ccc(O)c(CC=C(C)C)c4)c(=O)oc3c2C)OC1(C)C	viability, T/C	86.2%

Query (compound): CC1COCCN1c1cc(-c2ccnn2C)c2ccnc(-c3ccn[nH]3)c2n1 (configuration not stated) + Nc1ccc(C#CCN(C(=O)Cc2ncc(C(F)(F)F)cc2C(F)(F)F)c2ccc(F)cc2)nn1 ; field requested: viability, T/C 64.6%

Query (compound): CCc1c2c(nc3ccc(O)cc13)-c1cc3c(c(=O)n1C2)COC(=O)[C@]3(O)CC + Cc1cccc(N(C)C(=O)C2C(O)CCN2c2nc(C)cc(C(F)(F)F)c2C#N)c1 ; field requested: viability, T/C 31.7%

Query (compound): CC(C)n1c(=O)n(C)c2cnc3cc(F)c(-c4ccc(OCCCN5CCCCC5)nc4)cc3c21 + Cc1cccc(N(C)C(=O)C2C(O)CCN2c2nc(C)cc(C(F)(F)F)c2C#N)c1 ; field requested: viability, T/C 90.2%
